Test system: barnyardgrass (Echinochloa crus-galli)
Assay: Test B flooded paddy test, barnyardgrass
Format: in vivo
Details: Flood, 250 g ai/ha; scale 0 to 100 (0 no effect, 100 complete control); 13 to 15 d
What Plant response rating, Barnyardgrass was measured for each of the following?
# answer = number (no unit)

Requested field: Plant response rating, Barnyardgrass. Item: O=C1CCC(c2ccc(Cl)cc2)N1C(=O)Nc1ccc(F)c(F)c1F (stereo not shown)
0

Now this one: CN1CC(c2ccc(C(F)(F)F)cc2)N(C(=O)Nc2ccccc2F)C1=O (stereo not shown)
10

Now this one: CN1CC(c2ccc(C(F)(F)F)cc2)N(C(=O)Nc2ccc(F)cc2F)C1=O (stereo not shown)
10

Now this one: O=C(Nc1ccccc1C(F)(F)F)N1C(=O)OCC1c1ccc(F)c(F)c1 (stereo not shown)
0

Now this one: CN1CC(c2cccc(C(F)(F)F)c2)N(C(=O)Nc2ccccc2F)C1=O (stereo not shown)
0

Now this one: CN1CC(c2cccc(C(F)(F)F)c2)N(C(=O)Nc2cccc(F)c2F)C1=O (stereo not shown)
0

Now this one: O=C(Nc1ccccc1Cl)N1C(=O)OCC1c1ccc(F)c(F)c1 (stereo not shown)
0

Now this one: O=C(Nc1ccccc1F)N1C(=O)OCC1c1ccc(Cl)cc1 (stereo not shown)
0

Now this one: O=C1CCC(c2ccc(Cl)cc2)N1C(=O)Nc1ccccc1C(F)(F)F (stereo not shown)
0

Now this one: CN1CC(c2cccc(C(F)(F)F)c2)N(C(=O)Nc2ccc(F)cc2F)C1=O (stereo not shown)
0

----------
Tested on: pigweed (Amaranthus retroflexus)
Assay: Test A preemergence, pigweed
Assay type: in vivo
Details: 1000 g ai/ha, 0 to 100 scale, 0 no effect, 100 complete control
REPORTED_METRIC: Plant response rating, Pigweed
# answer = number (no unit)

Requested field: Plant response rating, Pigweed. Item: CN1CC(c2ccc(C(F)(F)F)cc2)N(C(=O)Nc2cccc(F)c2F)C1=O (stereo not drawn)
0

Now this one: O=C1NCC(c2ccccc2)N1C(=O)Nc1ccccc1 (stereo not drawn)
0

Now this one: Cc1ccc(C2CCC(=O)N2C(=O)Nc2ccc(F)c(F)c2F)cc1 (stereo not drawn)
0

Now this one: O=C(Nc1ccccc1F)N1C(=O)OCC1c1ccc(F)c(F)c1 (stereo not drawn)
0

Now this one: Cc1ccc(C2CCC(=O)N2C(=O)Nc2ccccc2F)cc1 (stereo not drawn)
70

Now this one: Cc1ccc(C2CCC(=O)N2C(=O)Nc2ccccc2C(F)(F)F)cc1 (stereo not drawn)
0

----------
Tested on: ducksalad (Heteranthera limosa)
Experiment: Test B flooded paddy test, ducksalad
Assay type: in vivo
Settings: Flood, 250 g ai/ha; scale 0 to 100 (0 no effect, 100 complete control); 13 to 15 d
Values of Plant response rating, Ducksalad greater than or equal to 40 map to yes (1); values below map to no (0).

Hi, just wondering whether O=C(Nc1ccccc1C(F)(F)F)N1C(=O)OCC1c1ccc(F)c(F)c1 (stereo not shown) shows Plant response rating, Ducksalad of 40 or higher.
no (0)

Now this one: O=C1CCC(c2ccc(Cl)cc2)N1C(=O)Nc1ccccc1C(F)(F)F (stereo not shown)
no (0)

Now this one: O=C(Nc1ccccc1Cl)N1C(=O)OCC1c1ccc(F)c(F)c1 (stereo not shown)
no (0)

Now this one: CN1CC(c2cccc(C(F)(F)F)c2)N(C(=O)Nc2ccccc2F)C1=O (stereo not shown)
no (0)

Now this one: O=C1CCC(c2ccc(Cl)cc2)N1C(=O)Nc1ccc(F)c(F)c1F (stereo not shown)
no (0)

Now this one: O=C(Nc1ccccc1F)N1C(=O)OCC1c1ccc(Cl)cc1 (stereo not shown)
no (0)

Now this one: CN1CC(c2ccc(C(F)(F)F)cc2)N(C(=O)Nc2ccccc2F)C1=O (stereo not shown)
yes (1)

Now this one: CN1CC(c2ccc(C(F)(F)F)cc2)N(C(=O)Nc2ccc(F)cc2F)C1=O (stereo not shown)
yes (1)

Now this one: CN1CC(c2cccc(C(F)(F)F)c2)N(C(=O)Nc2cccc(F)c2F)C1=O (stereo not shown)
yes (1)
